All values here come from PubChem BioAssay (NCI).

tested on: OVCAR-8 ovarian; assay: NCI tumour cell line growth inhibition, 48 h
Measured GI50 values are reported for all entries that follow.

Example entries begin here.
- COMPOUND_STRING: "Cc1ccc(Nc2nc(NCCO)c3ccccc3n2)cc1C"
  GI50: "5.44 µM"
- COMPOUND_STRING: "COc1ccc(C(=O)Cn2c(C(=O)c3ccc(OC)cc3)nc3ccccc32)cc1"
  GI50: "5.85 µM"
- COMPOUND_STRING: "O=C1c2ccccc2-c2c1c1ccccc1c(=O)n2CCCNCCCn1c2c(c3ccccc3c1=O)C(=O)c1ccccc1-2"
  GI50: "2.46 µM"

Prompt: What value of measured GI50 is listed for "COc1ccc(C(=O)Cn2c(C(=O)c3ccc(Cl)cc3)nc3ccccc32)cc1" ?
Completion: > 100 µM

Prompt: Another molecule to look at: "COc1cccc(-c2nn(-c3ccccc3)cc2-c2ccnc(NCCNS(=O)(=O)c3ccc(Cl)cc3)c2)c1"
Completion: 7.54 µM

Prompt: Continue with "Oc1c(CN2CCC(N3CCOCC3)CC2)cc(Cc2cc(CN3CCC(N4CCOCC4)CC3)c(O)c3ncccc23)c2cccnc12"
Completion: 1.57 µM

Prompt: Moving on to "C=C1C(=O)O[C@@H]2C[C@@H]1CC[C@]1(C)O[C@H]1CC[C@@]1(C)O[C@@H]1CC[C@@]2(C)O"
Completion: 30.7 µM

Prompt: Repeat for the following molecule: "CC/C=C\C[C@H](O)C/C=C1/C(=O)C=C[C@@H]1C/C=C\CCCC(=O)NC(C)C"
Completion: 3.04 µM

Prompt: Queued: "CC(C)(C)[OH+][O-].[O-]c1ccc(Cl)cc1C=Nc1ccc(Cl)cc1[O-].[O]=[V]"
Completion: 23 µM

---

Reported GI50 values for a set of compounds
test system: NCI-H23 lung; assay: NCI tumour cell line growth inhibition, 48 h

Some solved entries appear below for comparison.
- COMPOUND: "CNc1ccccc1C(=O)N/N=C/C=C/c1ccccc1"
  READING: "7.93 µM"
- COMPOUND: "Nc1c(C(=O)Nc2ccccc2)sc2nc3c(cc12)CCCCCC3"
  READING: "0.65 µM"
- COMPOUND: "CC(C)(C)[OH+][O-].[O-]c1ccc(Cl)cc1C=Nc1ccc(Cl)cc1[O-].[O]=[V]"
  READING: "20.4 µM"
- COMPOUND: "CN(C)CCNC(=O)c1ccc(Nc2nc3ccccc3c3occc23)cc1"
  READING: "8.36 µM"

Prompt: Field request: GI50 | item: "O=C(/C=C/c1ccco1)c1ccc(Nc2nc(Nc3ccc(F)cc3)nc(Nc3ccc(Cl)cc3)n2)cc1"
Completion: 17.9 µM

Prompt: Next record, please: "CCn1c(=O)c(-c2ccn[nH]2)cc2c(C)nc(N)nc21"
Completion: 2.07 µM

Prompt: Follow-up item: "O=C(Nc1ccc(S(=O)(=O)Nc2nccs2)cc1)c1cccnc1Nc1cccc(Cl)c1"
Completion: 12.9 µM

---

system: UACC-62 melanoma; assay: NCI tumour cell line growth inhibition, 48 h; in the data active = GI50 below about 0.43 µM; inactive = the rest
Return exactly one item of True = active, False = inactive

Some solved cases for reference:
- MOLECULE: "Cn1ccnc1C(=O)/C=C/c1ccc(CC(=O)Nc2ccc(Cl)cc2)cc1"
  DISCRETE_LABEL: "False"
- MOLECULE: "COc1ccc(C(=O)Cn2c(C(=O)c3ccc(OC)cc3)nc3ccccc32)cc1"
  DISCRETE_LABEL: "False"
- MOLECULE: "C=C1C(=O)O[C@H]2[C@H]1CC/C(COC(=O)C(=O)c1c[nH]c3ccccc13)=C\\CC[C@@]1(C)O[C@@H]21"
  DISCRETE_LABEL: "False"
- MOLECULE: "OCCN(CCO)N=Nc1ccc(-c2nc3ccccc3[nH]2)cc1"
  DISCRETE_LABEL: "False"
- MOLECULE: "CCc1ccc(-c2nnc(COc3ccc(-c4nc5ccc(C)cc5[nH]4)cc3OC)o2)cc1"
  DISCRETE_LABEL: "False"

Prompt: Which outcome was entered for the molecule "CCCCCCCCCCCCN1C(C)=CS/C1=C\C=C\c1scc(C)[n+]1CCCCCCCCCCCC" in this test?
Completion: False

Prompt: Note, next up: "Oc1c(CN2CCC(N3CCOCC3)CC2)cc(Cc2cc(CN3CCC(N4CCOCC4)CC3)c(O)c3ncccc23)c2cccnc12"
Completion: False

Prompt: Another molecule to check: "O=C(Nc1ccc(Cl)c([N+](=O)[O-])c1)Nc1nc2ccccc2s1"
Completion: False

Prompt: Next molecule: "O=C(Nc1ccc(-c2nc3cc4ccccc4cc3[nH]2)cc1)c1cccc(Br)c1"
Completion: False

Prompt: Check "CC/C=C\C[C@H](O)C/C=C1/C(=O)C=C[C@@H]1C/C=C\CCCC(=O)NC(C)C" too.
Completion: False

---

system: CCRF-CEM leukemia; experiment: NCI tumour cell line growth inhibition, 48 h
MEASUREMENT_LABEL: TGI

Below are worked cases with known answers.
- MOLECULE: "COc1ccc(-c2ccc(C3CC(c4ccc(O)cc4)=NN3)o2)c([N+](=O)[O-])c1 (stereo not given)"
  READING: "> 100 µM"
- MOLECULE: "CCOC(=O)c1cc2cc(N(C(C)=O)C(C)=O)ccc2s1"
  READING: "> 100 µM"
- MOLECULE: "Oc1ccc2ccccc2c1C=NCCCN=Cc1c(O)ccc2ccccc12"
  READING: "56.5 µM"
- MOLECULE: "CC(C)(C)NNC(=O)/C(=C/c1ccc(Oc2ccc(Cl)c(Cl)c2)cc1)NC(=O)c1ccccc1"
  READING: "> 100 µM"

Prompt: Find the recorded TGI belonging to "Cc1ccccc1NC(=O)NC(Oc1ccccc1)(C(F)(F)F)C(F)(F)F" and report it.
Completion: > 100 µM

---

test system: TK-10 renal; test: NCI tumour cell line growth inhibition, 48 h
# reported TGI; entries follow

- COMPOUND: "CCCN1C(=O)C/C(=C\\C(C)=O)Nc2ccccc21"
  TGI: "> 100 µM"
- COMPOUND: "CCOC(=O)c1c(C)n(Cc2ccccc2)c(=O)c2ccccc2c(=O)c2c(=O)ccc(=O)c1=2"
  TGI: "54 µM"

Prompt: # get_value(readout= TGI, system= TK-10 renal) for "Cc1ccc2c(c1)SSSSS2"
Completion: 37.9 µM

Prompt: Note, next up: "NC(=O)NC(=O)c1cnccn1"
Completion: > 100 µM

Prompt: Next compound up: "CC(C)(C)NNC(=O)/C(=C/c1ccc(Oc2ccc(Cl)c(Cl)c2)cc1)NC(=O)c1ccccc1"
Completion: > 100 µM

Prompt: And for "CCn1c(=O)c(-c2ccn[nH]2)cc2c(C)nc(N)nc21" ?
Completion: 4.62 µM

Prompt: What about CC1C(c2ccc(F)cc2)c2cc3c(cc2OC1N1CCCC1)OCO3 (configuration not stated) ?
Completion: > 100 µM

Prompt: Also "O=C(c1ccccc1)c1ccc(C(c2c(O)c3ccccc3oc2=O)c2c(O)c3ccccc3oc2=O)cc1" ?
Completion: 36.7 µM

Prompt: For Cc1ccc(/C=C2\CN(C)CC3=C2OC(N)=C(C#N)C3c2ccc(C)cc2)cc1 (configuration not stated) then?
Completion: > 80.8 µM

---

tested on: NCI-H460 lung; test: NCI tumour cell line growth inhibition, 48 h
MEASUREMENT_LABEL: TGI (µM)
Quick note: give the figure in µM, leave out the unit.

Consider the reported TGI for these compounds:
- COMPOUND_STRING: "CC(C)(C)[OH+][O-].[O-]c1ccc(Cl)cc1C=Nc1ccc(Cl)cc1[O-].[O]=[V]"
  TGI (µM): 46.3
- COMPOUND_STRING: "Brc1cccc(/C=C/CN2CCN(CCOC(c3ccccc3)c3ccccc3)CC2)c1"
  TGI (µM): 28.1
- COMPOUND_STRING: "CN(C)CCCNc1c(O)c2c(c(O)c1Cl)C(=O)C=CC2=O"
  TGI (µM): 3.81
- COMPOUND_STRING: "CCN(CC)c1ccc(/C=C(\\C#N)c2nc(N)nc(N3N=C(C)CC3(C)C)n2)cc1"
  TGI (µM): 44.5

Moving on to the next compound.
Prompt: Returns the measured TGI for the input compound. Input: "Nc1c(C(=O)Nc2ccccc2)sc2nc3c(cc12)CCCCCC3"
Completion: 3.91

---

TGI: recorded values
system: RPMI-8226 leukemia; assay: NCI tumour cell line growth inhibition, 48 h

Solved cases (4 shown):
- COMPOUND: "COc1nc2c(OC)cccc2c(OC)c1C=O"
  READING: "> 100 µM"
- COMPOUND: "Cn1ccnc1C(=O)/C=C/c1ccc(CC(=O)Nc2ccc(Cl)cc2)cc1"
  READING: "> 25 µM"
- COMPOUND: "CCOC(=O)c1c(C)n(Cc2ccccc2)c(=O)c2ccccc2c(=O)c2c(=O)ccc(=O)c1=2"
  READING: "67.3 µM"
- COMPOUND: "O=C1NC(=O)C(C(=O)C(=O)Nc2ccc(Br)cc2)C(=O)N1"
  READING: "> 100 µM"

Prompt: API: value(readout=TGI, system=RPMI-8226 leukemia) for record "S=CN1CCCCC1"
Completion: > 100 µM

Prompt: Now try "C[Si](C)(C)C#CCO[Si](C)(C)C" .
Completion: > 79.8 µM

Prompt: Likewise for "COc1ccc(C(=O)Cn2c(C(=O)c3ccc(Cl)cc3)nc3ccccc32)cc1" ?
Completion: > 77.8 µM

Prompt: Here is the next compound: OC1(c2ccccc2)CC2CCC(C1)N2CCc1ccccc1 (stereo unspecified)
Completion: > 100 µM

Prompt: Record: "O=C1/C(=C/c2cccc([N+](=O)[O-])c2)COc2ccc(O)c(O)c21"
Completion: 0.93 µM
